# Test Protocol: in vivo
# Condition Info: New Zealand Albino, rabbit, po, 1.5 mg/kg

{"Given Smiles": "CCCN(CCC)CCc1cccc2c1CC(=O)N2", "Result Units": "ng·h/mL", "AUC(0-t)": 65.5}

----------
# Test Protocol: in vivo
# Condition Info: New Zealand Albino, rabbit, po, 1.5 mg/kg
Measured Metric: AUC(0-inf) (ng·h/mL)

{"Compound": "CCCN(CCC)CCc1cccc2c1CC(=O)N2 [ropinirole, Ropinirole]", "Result Units": "ng·h/mL", "Meas Value": 90.5}

----------
# Test Protocol: in vivo
# Condition Info: New Zealand Albino, rabbit, po, 1.5 mg/kg
Measured Metric: half-life (h)

{"Compound": "CCCN(CCC)CCc1cccc2c1CC(=O)N2 [ropinirole, Ropinirole]", "Measured Metric": "half-life", "Meas Value": 2.89}

----------
# Test Protocol: In vivo pharmacokinetic study of ropinirole / ROP-ODF
# Condition Info: New Zealand Albino, rabbit, po, 1.5 mg/kg
Measured Metric: Tmax (h)

{"Given Smiles": "CCCN(CCC)CCc1cccc2c1CC(=O)N2", "Measured Metric": "Tmax", "Meas Value": 2.38}

Each recorded value in this set is attributed to patent US20180000725A1.
